study.target: human Claudin 18.2 (CLDN18.2) (human, UniProt P56856-2 1-261)
measurement.notes: cell-based or functional assay
Listed next: entries and their corresponding % internalization, NUGC4-CLDN18.2, 37 C 2 h.
parameter: % internalization, NUGC4-CLDN18.2, 37 C 2 h

1. hz282-11-V2 (antibody, V domains shown) VH: QVQLQESGPGLVKPSETLSLTCTVSGFSLTSYNVYWIRQPPGKGLEWIGVIWNTGATRYNSALKSRVTISKDTSKSQVSLKLSSVTAADTAVYYCARDSAMPAIPFAYWGQGTLVTVSS VL: DIQMTQSPSSLSASVGDRVTITCKSSQSLFGSVRQKNYLAWYQQKPGKAPKLLIYLASTRESGVPSRFSGSGSGTDFTLTISSLQPEDFATYYCQQYYDIPWTFGGGTKVEIK :: > 80%
2. 413H9F8-VL-S32V-V2-DL (antibody, V domains shown) VH: DVQLVESGGGSVQPGGSRRLSCAASGFTFSSFGMHWVRQAPEKGLEWVAYISSGSSPIYYVDKLKGRFTVSRDNPKNTLFLQMTSLRSEDTAMYYCARAGYAVRNALDYWGQGTSITVSS VL: DIVMTQSPSSLSVSVGEKVTLSCKSSQSLLNVGNQKNYLAWYQQKTGQPPKLLIYGASTRESGVPDRFIGSGSGTDFTLTISSVQAEDLAVYFCQNDLFYPLTFGAGTKLELK :: < 15%
3. Xi282A12F3(T62A)-V2-DL (antibody, V domains shown) VH: QVQLKESGPVLVQPSQTLSLTCTVAGFSLTSYNVYWVRQPPGKGLEWMGVIWNTGATRYNSALKSRLSISKDTSKSQVFLKMNSLQTEDTATYYCARDSAMPAIPFAYWGQGTLVTVSS VL: DIVMTQSPSSLAVSAGETVTINCKSSQSLFGSVRQKNYLAWYQQKPGQSPKLLIYLASTRESGVPDRFIGSGSGTDFTLTISSVQAEDLAKYYCQQYYDIPWTFGGGTKLELK :: > 80%
4. hz282-15-V2 (antibody, V domains shown) VH: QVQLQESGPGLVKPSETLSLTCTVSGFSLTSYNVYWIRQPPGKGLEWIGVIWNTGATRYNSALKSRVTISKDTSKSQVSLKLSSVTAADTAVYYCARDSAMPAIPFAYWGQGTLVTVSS VL: DIQMTQSPSSLSASVGDRVTITCKSSQSLFGSVRQKNYLAWYQQKPGKSPKLLIYLASTRESGVPDRFSGSGSGTDFTLTISSLQPEDFAKYYCQQYYDIPWTFGGGTKVEIK :: > 80%
